Provide the recorded pKd for the entries that follow.
target: T1, recombinant human 4R0N tau (human, UniProt P10636 2-758); assay: SPR Biacore T200; antibody captured by anti-human Fc; tau as analyte; global 1:1 fit
T1 construct: also called recombinant 4R0N human tau; P10636-6
T1 sequence (P10636 other isoform, or with tags, fused parts or gaps limits assumed): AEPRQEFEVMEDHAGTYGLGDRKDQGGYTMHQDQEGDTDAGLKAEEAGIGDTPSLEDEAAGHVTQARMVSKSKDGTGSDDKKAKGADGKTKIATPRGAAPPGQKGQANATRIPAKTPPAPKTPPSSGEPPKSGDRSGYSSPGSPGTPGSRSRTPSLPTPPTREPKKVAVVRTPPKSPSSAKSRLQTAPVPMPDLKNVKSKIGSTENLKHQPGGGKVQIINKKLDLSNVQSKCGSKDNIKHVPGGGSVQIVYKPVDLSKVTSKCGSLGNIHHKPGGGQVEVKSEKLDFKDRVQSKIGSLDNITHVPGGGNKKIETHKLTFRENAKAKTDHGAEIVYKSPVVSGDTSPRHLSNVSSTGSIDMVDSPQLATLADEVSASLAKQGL
# pKd: negative log10 of molar concentration; output just the value

Exercise: So what does the record say about pKd for hu9F5VHv10/hu9F5VLv9_DIM20 (antibody, V domains shown) VH: EVQLVQSGAEVKKPGATVKISCKASGFNIKDDYMNWVKQRPEKGLEWIGWIDPENGDTEYASKFQGRATMTADTSTNTAYMELSSLRSEDTAVYYCTTSNGWGQGTLVTVSS VL: DIQMTQSPFSLPVTPGESASISCRSSKSLSHSNGITYLYWYQQKPGQSPQLLIYQISNGASGVPDRFSSSGSGTDFTLKISRVEAEDVGVYYCAQNIELPLTFGQGTKLEIK ?
Key: 8.02

Exercise: Another binder: hu9F5VHv9/hu9F5VLv8_DIM16 (antibody, V domains shown) VH: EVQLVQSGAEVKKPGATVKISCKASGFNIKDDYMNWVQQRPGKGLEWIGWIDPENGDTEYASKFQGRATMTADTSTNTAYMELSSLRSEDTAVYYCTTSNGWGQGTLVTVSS VL: DIQMTQSPFSLPVTPGESASISCRSSKSLGHSNGITYLYWYGQKPGQSPQLLIYQGSNTASGVPNRFSSSGSGTDFTLKISRVEAEDVGVYYCAQNLELPLTFGQGTKLEIK
Key: 9.45
